Target: α2δ subunit (Sus scrofa, UniProt A0A287BIN3)
Construct: the α2δ subunit derived from porcine brain tissue was used; from tissue; host or cells: porcine brain tissue
Sequence (A0A287BIN3 25-1109): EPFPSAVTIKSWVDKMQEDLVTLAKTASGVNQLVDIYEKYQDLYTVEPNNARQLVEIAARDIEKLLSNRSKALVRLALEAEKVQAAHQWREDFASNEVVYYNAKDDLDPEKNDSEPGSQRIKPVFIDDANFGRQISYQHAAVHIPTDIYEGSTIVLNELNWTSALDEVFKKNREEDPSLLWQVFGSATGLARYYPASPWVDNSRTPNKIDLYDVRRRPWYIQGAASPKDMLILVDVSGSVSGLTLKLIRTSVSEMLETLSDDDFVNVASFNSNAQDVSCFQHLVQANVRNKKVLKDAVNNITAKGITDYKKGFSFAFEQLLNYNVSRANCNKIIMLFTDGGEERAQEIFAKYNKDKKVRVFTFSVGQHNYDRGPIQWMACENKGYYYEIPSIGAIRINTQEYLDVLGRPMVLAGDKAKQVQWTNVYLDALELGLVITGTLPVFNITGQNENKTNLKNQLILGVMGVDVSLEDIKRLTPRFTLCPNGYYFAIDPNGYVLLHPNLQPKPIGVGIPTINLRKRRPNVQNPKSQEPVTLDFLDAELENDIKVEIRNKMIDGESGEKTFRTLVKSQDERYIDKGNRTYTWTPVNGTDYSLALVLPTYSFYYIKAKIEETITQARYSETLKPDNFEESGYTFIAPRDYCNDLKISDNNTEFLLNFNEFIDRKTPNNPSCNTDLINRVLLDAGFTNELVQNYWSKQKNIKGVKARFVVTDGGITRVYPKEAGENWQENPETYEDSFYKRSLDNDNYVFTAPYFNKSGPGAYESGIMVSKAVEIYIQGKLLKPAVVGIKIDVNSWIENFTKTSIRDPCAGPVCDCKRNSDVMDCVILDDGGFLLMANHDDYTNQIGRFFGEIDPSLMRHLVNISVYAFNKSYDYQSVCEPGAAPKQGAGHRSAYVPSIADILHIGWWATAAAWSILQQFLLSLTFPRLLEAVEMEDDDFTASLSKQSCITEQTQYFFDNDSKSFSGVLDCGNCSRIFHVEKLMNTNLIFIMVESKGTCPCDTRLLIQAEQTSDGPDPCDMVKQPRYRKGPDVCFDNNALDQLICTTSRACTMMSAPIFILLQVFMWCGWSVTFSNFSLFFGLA
Assay: radioligand binding assay using [3H]gabapentin and the α2δ subunit
Design: species or system porcine
Structures can show the parent of a compound that is named as a salt.
One threshold, 90 nM, splits the recorded IC50 values: lower ones are 1, equal or higher ones are 0.

{"columns": ["compound", "labelValue"],
 "data": [
  ["C[C@H]1CC(CN)(CC(=O)O)C[C@@H]1C.Cl [hydrochloride]", 1],
  ["C[C@@H]1CC(CN)(CC(=O)O)C[C@H]1C [hydrochloride]", 0],
  ["NCC1(CC(=O)O)CC(Cc2ccccc2)C1 (mixture of isomers) [hydrochloride]", 0],
  ["C[C@@H]1CC(CN)(CC(=O)O)C[C@H]1C.Cl (racemic) [hydrochloride]", 1],
  ["Cl.NCC1(CC(=O)O)CCC1 [hydrochloride]", 0]
]}

###

We begin with a simple list: items and their reported % MPE 2 hr postdose @ 30 mg/kg PO.
Tested on: Carrageenan Induced Thermal Hyperalgesia in the Rat
Experiment: Carrageenan-induced thermal hyperalgesia in the rat (plantar test, paw withdrawal latency)
Format: in vivo
Conditions: 2 hr postdose, MPE = maximum possible effect, baseline before carrageenan
Where a name gives a salt, the structure may show the parent alone.

{"columns": ["compound", "% MPE 2 hr postdose @ 30 mg/kg PO (% MPE)"],
 "data": [
  ["C[C@@H]1CC(CN)(CC(=O)O)C[C@H]1C.Cl (racemic)", 72],
  ["Cl.NCC1(CC(=O)O)CCC1", 4],
  ["C[C@H]1CC(CN)(CC(=O)O)C[C@@H]1C.Cl", 118],
  ["NCC1(CC(=O)O)CC(Cc2ccccc2)C1 (mixture of isomers) [hydrochloride]", 0],
  ["C[C@@H]1C[C@](CN)(CC(=O)O)C[C@@H]1C [hydrochloride]", "−2"],
  ["C[C@@H]1CCC(CN)(CC(=O)O)C1 (mixture of isomers) [hydrochloride]", 53]
]}

###

Target: α2δ subunit (Sus scrofa, UniProt A0A287BIN3)
Construct: the α2δ subunit derived from porcine brain tissue was used; from tissue; host or cells: porcine brain tissue
Experiment: radioligand binding assay using [3H]gabapentin and the α2δ subunit
Design: species or system porcine
Conditions: read-out: IC50 (μM) at α2δ binding site
Counter-ions that a name gives are not always drawn.

{"columns": ["molecule", "IC50 [µM]"],
 "data": [
  ["C[C@@H]1C[C@](CN)(CC(=O)O)C[C@@H]1C [hydrochloride]", 0.154]
]}
